- System: Aspergillus niger
- measurement-protocol: Antifungal activity against Aspergillus niger Ferm-BAM C-21 at 5 mg/ml by agar disk diffusion assay
- Assay type: functional
- measurement-conditions: read-out: DIZ
Kind request: treat 20 mm as inclusive, so zone of inhibition at 5000 µg/mL at 20 mm or higher is MET, anything lower is NOT MET.

Sample answers from the record:
{"smiles-string": "N=C1C(=S)N(c2ccc(Cl)c(Cl)c2)C(=O)N1c1ccc(Cl)cc1", "answer-label": "NOT MET"}
{"smiles-string": "N=C1C(=S)N(c2ccc(Cl)cc2)C(=O)N1c1cccc2ccccc12", "answer-label": "NOT MET"}
{"smiles-string": "CCOc1ccc(N2C(=O)N(c3c(CC)cc(Cc4cc(CC)c(N5C(=N)C(=S)N(c6ccc(OCC)cc6)C5=O)c(CC)c4)cc3CC)C(=N)C2=S)cc1", "answer-label": "NOT MET"}
{"smiles-string": "N#CC(=S)Nc1ccc(Cl)c(Cl)c1", "answer-label": "MET"}

Below: the item to evaluate.
Q: Form field: zone of inhibition at 5000 µg/mL at least 20 mm? Entry: `N=C1C(=S)N(c2ccc(I)cc2)C(=S)N1c1ccc(I)cc1`
Result: NOT MET
